Test system: NCI-H522 lung
assay procedure: NCI tumour cell line growth inhibition, 48 h
Give Yes when the value for TGI is at least 30 µM. Give No when it is less.

>>> assigned_label("C/C(=N\\NC(=S)N1CCN(c2ccccn2)CC1)c1cccc2cccnc12")
"No"
>>> assigned_label("CCCC(C(=O)Nc1cccc2[nH]cnc12)C(=O)OCC (stereo unspecified)")
"Yes"
>>> assigned_label("CCC(=O)CCC1=Nc2nnc(CCCCc3nnc4n3C(=O)C(CCC(=O)CC)=N4)n2C1=O")
"Yes"
>>> assigned_label("COC1OC(Cn2cc([N+](=O)[O-])nc2C)C(O)C(O)C1O (stereo unspecified)")
"Yes"
>>> assigned_label("C[C@@H](Oc1cc(-c2cnn(C3CCNCC3)c2)cnc1N)c1c(Cl)cc(F)cc1Cl")
"No"
>>> assigned_label("CC[C@]1(Cc2ccc(OC)c(OC)c2)C=[N+]([O-])O[C@H](OCc2ccccc2)[C@@H]1OC(C)=O")
"No"
>>> assigned_label("COc1cc([C@@H]2c3cc4c(cc3[C@@H](NC(=O)NO)[C@H]3COC(=O)[C@H]23)OCO4)cc(OC)c1O")
"Yes"
>>> assigned_label("Cc1cc(S(=O)(=O)NC2=NCC(C)(C)CN2)c(S)cc1Cl")
"Yes"
>>> assigned_label("C=C1C(=O)O[C@H]2[C@H]1CC/C(COC(=O)/C=C\\C(=O)NCc1ccc(Cn3c(=O)sn(-c4ccc(Cl)cc4)c3=O)cc1)=C\\CC[C@@]1(C)O[C@@H]21")
"No"
>>> assigned_label("COC1C(=O)N(SC)C1c1ccccc1Cl (stereo unspecified)")
"Yes"
>>> assigned_label("CN(C(=O)c1ccccc1)c1ccc2c(c1)C(=O)c1ccccc1C2=O")
"Yes"
>>> assigned_label("CC(=N/NC(N)=S)/C(C)=N/NC(N)=S")
"Yes"
>>> assigned_label("CNC(=O)NCCN1N=C(C)/C(=C\\c2ccccc2)CC1=O")
"Yes"
>>> assigned_label("CCS(=O)(=O)N1CCN(c2ccc(Nc3ncc(C(N)=O)c(NC4CC4)n3)cc2)CC1")
"Yes"
>>> assigned_label("CC(C)(C)NC(=S)N/N=C/c1ccccn1")
"Yes"
>>> assigned_label("CC1=NNC(=O)C1C1C=C(c2c[nH]c3ccccc23)OC1=O (stereo unspecified)")
"Yes"
>>> assigned_label("COc1cc2cnc3c4cc(OC)c(OC(C)C)cc4ccc3c2cc1OC")
"Yes"
>>> assigned_label("COC(=O)C(=O)C(C(C)=O)C(=O)C(=O)Nc1ccc(C)cc1C (stereo unspecified)")
"Yes"
>>> assigned_label("CCOC(=O)C1=NNC(C(=O)c2ccccc2)C1c1ccccc1 (stereo unspecified)")
"No"
